The measured values listed here are drawn from PubChem BioAssay AID652068.

Assay: displacement of TO-PRO-1 from CAG DNA duplex, counter-screen for rCAG RNA repeat binder project, biochemical, fluorescence, TO-PRO-1 dye, d(CAG) DNA oligo (AID 652068);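 also: 0% = DNA dye mix with DMSO and 100% = 100 µM mitoxantrone; hits displace the dye from DNA and so lower well fluorescence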
Conditions: d(CAG) DNA oligo TO-PRO-1 dye displacement, at 3 µM, stronger effect = higher value
Out of some 4,300 compounds screened, about 4,000 (93%) were called active. The set was probably picked from earlier hits. These entries were drawn from the full list.
inhibition below 20% gives Not fulfilled; inhibition at or above it gives Fulfilled.

Use the examples below as a reference point.
>  <COMPOUND>
COc1cc(C(=O)Nn2c(O)c(C3=c4ccccc4=NC3=O)sc2=S)ccc1O

>  <CLASS_ASSIGNMENT>
Not fulfilled

$$$$
>  <COMPOUND>
Cc1ccc(Nc2nc(-c3ccc(O)cc3O)cs2)nc1

>  <CLASS_ASSIGNMENT>
Not fulfilled

$$$$
>  <COMPOUND>
Cc1nnc(NC(=O)Nc2ccc(Cl)c(Cl)c2)s1

>  <CLASS_ASSIGNMENT>
Fulfilled

$$$$
>  <COMPOUND>
Cc1cc(C)cc(Oc2c(C(F)(F)F)oc3cc(OCC(=O)O)ccc3c2=O)c1

>  <CLASS_ASSIGNMENT>
Not fulfilled

$$$$
>  <COMPOUND>
O=C(N/N=C/c1cccnc1)c1cc2ccccc2cc1O

>  <CLASS_ASSIGNMENT>
Not fulfilled

$$$$
>  <COMPOUND>
CCOC(=O)c1c(NC(=O)C2CC=CCC2C(=O)O)sc(C)c1CC (centres undefined)

>  <CLASS_ASSIGNMENT>
Not fulfilled

$$$$
>  <COMPOUND>
O=C(O)c1ccc(N/N=C/c2cn(-c3ccccc3)nc2-c2cccs2)cc1

>  <CLASS_ASSIGNMENT>
Fulfilled

$$$$
>  <COMPOUND>
N#Cc1c(NC(=O)C2CC(Cl)=CCC2C(=O)O)sc2c1CCCCC2 (centres undefined)

>  <CLASS_ASSIGNMENT>
Not fulfilled

$$$$

Reported inhibition reaches at least 20% for O=C(N/N=C/c1c(Cl)[nH]c2ccccc12)c1sc2ccccc2c1Cl ?
Not fulfilled

Form field: inhibition at least 20%? Entry: O=C(NNC(=S)NC(=O)c1cn(-c2ccccc2)nc1-c1ccccc1)c1ccncc1
Not fulfilled

Quick check: does CCc1nnc(NS(=O)(=O)c2ccc(NC(=O)c3cccc(OC(F)(F)C(F)F)c3)cc2)s1 have inhibition greater than or equal to 20%?
Fulfilled

hey, is inhibition for this one >= 20%? CCc1ccc(OC(C)C(=O)Nc2ccc(S(=O)(=O)Nc3cc(C)on3)cc2)cc1 (centres undefined)
Not fulfilled

----------
Test: displacement of TO-PRO-1 from CAG DNA duplex, counter-screen for rCAG RNA repeat binder project, biochemical, fluorescence, TO-PRO-1 dye, d(CAG) DNA oligo (AID 652068);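 also: 0% = DNA dye mix with DMSO and 100% = 100 µM mitoxantrone; hits displace the dye from DNA and so lower well fluorescence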
Conditions: d(CAG) DNA oligo TO-PRO-1 dye displacement, at 3 µM, stronger effect = higher value
The whole screen tested about 4,300 compounds, of which about 4,000 (93%) were called active. The set was probably picked from earlier hits. The list is a sample of the results.
Parameter: inhibition. Scope: all listed entries.
Quick note: give the figure in %, leave out the unit.

Known inhibition results, listed for orientation:
>  <MOLECULE>
COc1ccccc1/C=C/C=N/n1c(-c2ccc(Cl)cc2Cl)n[nH]c1=S

>  <UNITS_LABEL>
%

>  <inhibition>
15.2

$$$$
>  <MOLECULE>
CCOc1cc(/C=C(\C#N)c2nc(-c3cccs3)c(NC(C)=O)s2)ccc1O

>  <UNITS_LABEL>
%

>  <inhibition>
16.7

$$$$
>  <MOLECULE>
Cc1ccccc1-c1ccc2c(c1)O[C@@H](CN(C)Cc1ccc(C(=O)O)cc1)[C@@H](C)CN([C@H](C)CO)S2(=O)=O

>  <UNITS_LABEL>
%

>  <inhibition>
21.1

$$$$
>  <MOLECULE>
O=C1CC(c2ccccc2)=NN1c1ccc([N+](=O)[O-])cc1

>  <UNITS_LABEL>
%

>  <inhibition>
14.2

$$$$
>  <MOLECULE>
Nc1[nH]c(=S)nc2nc(-c3ccccc3)c(-c3ccccc3)nc12

>  <UNITS_LABEL>
%

>  <inhibition>
13.8

$$$$
>  <MOLECULE>
CCCCC[C@@H]1C=C(C(=O)O)[C@H](c2ccc(C#N)cc2)N1S(=O)(=O)c1ccc(C)cc1

>  <UNITS_LABEL>
%

>  <inhibition>
20.6

$$$$

For the molecule Cc1ccc(NC(=O)CSc2nc(CSc3ccc(C)cc3)cc(=O)[nH]2)cc1 , what inhibition is on record?
16.7

Fill in the blank: the reported inhibition of Cc1ccc(-n2c(SCC(=O)Nc3ccc(S(=O)(=O)Nc4nccs4)cc3)nnc2-c2ccccn2)cc1 is ____.
23.8

Which inhibition value is on record for O=C(Nc1cccc(Cl)c1)Nc1ccccc1NS(=O)(=O)c1cccs1 ?
9.83

Bench note: what inhibition did CCOC(=O)c1ccccc1N1C(=O)C2Sc3[nH]c(=O)sc3C(/C=C/c3ccccc3)C2C1=O (stereo not drawn) show?
18.1

State the recorded inhibition for this entry: O=C(O)c1ccccc1/C=N/Nc1ccc(S(=O)(=O)Nc2ccc(Cl)cc2)cc1[N+](=O)[O-]
27.1

Tell me the measured inhibition of Cc1cc(/C=N/Nc2ccc([N+](=O)[O-])cn2)c(C)n1-c1cccc(C(=O)O)c1 , please.
10.4

Could you tell me which inhibition is on file for COc1ccc(NS(=O)(=O)c2cc(C(=O)Nc3ccccc3C(=O)O)ccc2C)cc1 ?
18.6

----------
Entries annotated with measured inhibition
Assay: displacement of TO-PRO-1 from CAG DNA duplex, counter-screen for rCAG RNA repeat binder project, biochemical, fluorescence, TO-PRO-1 dye, d(CAG) DNA oligo (AID 652068);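 also: 0% = DNA dye mix with DMSO and 100% = 100 µM mitoxantrone; hits displace the dye from DNA and so lower well fluorescence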
Details: d(CAG) DNA oligo TO-PRO-1 dye displacement, at 3 µM, stronger effect = higher value
Hit rate of the full screen: of about 4,300 compounds, about 4,000 (93%) were called active. The set was probably picked from earlier hits. A selection follows.

>  <COMPOUND>
Cc1ccc(S(=O)(=O)N2[C@@H](c3cccc4ccccc34)C(C(=O)O)=C[C@H]2C(C)(C)C)cc1

>  <OBSERVED_RESULT>
15.6% (active)

$$$$
>  <COMPOUND>
O=c1cc(CN2CCN(S(=O)(=O)/C=C/c3ccccc3)CC2)c2ccc(O)cc2o1

>  <OBSERVED_RESULT>
13.1% (active)

$$$$
>  <COMPOUND>
COCCNC(=O)Nc1ccc2nc(-c3ccco3)c(-c3ccco3)nc2c1

>  <OBSERVED_RESULT>
28.6% (active)

$$$$
>  <COMPOUND>
O=C(Nc1ccccc1)Nc1nnc(COc2ccccc2F)s1

>  <OBSERVED_RESULT>
24.9% (active)

$$$$
>  <COMPOUND>
COC(=O)c1c(NC(=O)C2CC(C)=C(C)CC2C(=O)O)sc2c1CCCCC2 (configuration not stated)

>  <OBSERVED_RESULT>
20.6% (active)

$$$$

Record request: inhibition value, item N#Cc1ccccc1CN1C(=O)S/C(=C/c2cccn2-c2cccc(C(=O)O)c2)C1=O
25.7% (active)

Name the recorded inhibition for Cc1ccc(Cn2c(SCC(=O)N/N=C/c3ccccc3OCC(=O)O)nc3ccccc32)cc1 .
23% (active)
